# ASSAY: Lipophilicity, log D of the compound by HPLC method
# Format: physicochemical
MEASURED_PROPERTY: logD

{"COMPOUND": "CC1(C)C[C@H](NC(=O)C2(c3ccc4c(c3)OC(F)(F)O4)CC2)c2cc(F)ccc2O1", "MEASURED_RESULT": 5.1}
{"COMPOUND": "CC1(C)C[C@@H](NC(=O)C2(c3ccc4c(c3)OC(F)(F)O4)CC2)c2ccc(F)c(Cl)c2O1", "MEASURED_RESULT": 5.4}
{"COMPOUND": "COc1ccc2c(c1)OC(c1ccccc1)CC2NC(=O)C1(c2ccc3c(c2)OC(F)(F)O3)CC1 (stereo not drawn)", "MEASURED_RESULT": 5.4}
